IC50 by entry:
# target.system: human SSTR2 (Homo sapiens, UniProt P30874)
# Construct: expressed in transfected cells; host or cells: CHO-K1 cells and CCL39 cells
# Sequence (P30874 whole entry): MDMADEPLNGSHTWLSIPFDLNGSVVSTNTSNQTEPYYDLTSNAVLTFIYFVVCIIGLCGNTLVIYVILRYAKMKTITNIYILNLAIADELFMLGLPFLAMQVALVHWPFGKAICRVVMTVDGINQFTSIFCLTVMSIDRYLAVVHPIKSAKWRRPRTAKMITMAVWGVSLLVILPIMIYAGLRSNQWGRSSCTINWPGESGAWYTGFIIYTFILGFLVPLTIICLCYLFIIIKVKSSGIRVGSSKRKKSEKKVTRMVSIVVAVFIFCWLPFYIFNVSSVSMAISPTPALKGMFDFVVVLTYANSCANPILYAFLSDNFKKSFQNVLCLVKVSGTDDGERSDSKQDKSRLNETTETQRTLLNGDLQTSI
# measurement.protocol: Displacement of 125I-[Leu8,D-Trp22,Tyr25]-SRIF-28 from cloned SSTR2 (receptor autoradiography)
# Type: binding
# condition.notes: read-out: IC50 (nM) mSSTR2
*1 amine or outer side, *2 acyl side, *3 side chain or, on linkers, in order; H or OH if unused. Where a SMILES comes first, the peptide text is derived from it. Bridges are numbered along the chain shown (N, C = ends). [ ]: non-standard residue; d: D form. NMePhe(4-CH2NHiPr) = CN[C@@H](Cc1ccc(CNC(C)C)cc1)C(=O)O; Phe(4-CH2NHiPr) = CC(C)NCc1ccc(C[C@H](N)C(=O)O)cc1; Tyr(3-I) = N[C@@H](Cc1ccc(O)c(I)c1)C(=O)O; X1 = NC(=O)N[C@@H](CS[*:2])C(=O)[*:1]; X2 = NC(=O)N[C@H](CS[*:2])C(=O)[*:1]

Record excerpt, results attached:
[[record]]
molecule = "CC(C)NCc1ccc(C[C@@H]2NC(=O)[C@@H](Cc3c[nH]c4ccccc34)NC(=O)[C@H](Cc3ccccc3)NC(=O)[C@H](Cc3ccccc3)NC(=O)[C@H](CCCCN)NC(=O)[C@@H](NC(N)=O)CSSC[C@@H](C(=O)O)NC(=O)[C@H](CO)NC(=O)[C@H]([C@@H](C)O)NC(=O)[C@H](Cc3ccc(O)c(I)c3)NC(=O)[C@H]([C@@H](C)O)NC2=O)cc1 [Peptide No. 12B] (KFF[dW][Phe(4-CH2NHiPr)]T[Tyr(3-I)]TSC-OH; linker N-10 via X1)"
endpoint = "IC50"
result = "> 10000 nM"

[[record]]
molecule = "CC(C)NCc1ccc(C[C@@H]2NC(=O)[C@@H](Cc3c[nH]c4ccccc34)NC(=O)[C@H](Cc3ccccc3)NC(=O)[C@H](Cc3ccccc3)NC(=O)[C@H](CCCCN)NC(=O)[C@H](NC(N)=O)CSSC[C@@H](C(=O)O)NC(=O)[C@H](CO)NC(=O)[C@H]([C@@H](C)O)NC(=O)[C@H](Cc3ccc(O)cc3)NC(=O)[C@H]([C@@H](C)O)NC2=O)cc1 [Peptide No. 12C] (KFF[dW][Phe(4-CH2NHiPr)]TYTSC-OH; linker N-10 via X2)"
endpoint = "IC50"
result = "> 10000 nM"

[[record]]
molecule = "CC(C)NCc1ccc(C[C@H]2C(=O)N[C@@H]([C@@H](C)O)C(=O)N[C@@H](Cc3ccc(O)c(I)c3)C(=O)N[C@@H]([C@@H](C)O)C(=O)N[C@@H](CO)C(=O)N[C@H](C(=O)O)CSSC[C@H](NC(N)=O)C(=O)N[C@@H](CCCCN)C(=O)N[C@@H](Cc3ccccc3)C(=O)N[C@@H](Cc3ccccc3)C(=O)N[C@H](Cc3c[nH]c4ccccc34)C(=O)N2C)cc1 [Peptide No. 12D] (KFF[dW][NMePhe(4-CH2NHiPr)]T[Tyr(3-I)]TSC-OH; linker N-10 via X1)"
endpoint = "IC50"
result = "> 1000 nM"

[[record]]
molecule = "CC(C)NCc1ccc(C[C@H]2C(=O)N[C@@H]([C@@H](C)O)C(=O)N[C@@H](Cc3ccccc3)C(=O)N[C@@H]([C@@H](C)O)C(=O)N[C@@H](CO)C(=O)N[C@H](C(=O)O)CSSC[C@H](NC(=O)[C@@H](N)Cc3ccc(O)cc3)C(=O)N[C@@H](CCCCN)C(=O)N[C@@H](Cc3ccccc3)C(=O)N[C@@H](Cc3ccccc3)C(=O)N[C@H](Cc3c[nH]c4ccccc34)C(=O)N2C)cc1 [Peptide No. 27] (H-YCKFF[dW][NMePhe(4-CH2NHiPr)]TFTSC-OH; disulfide 2-12)"
endpoint = "IC50"
result = "> 10000 nM"


IC50 for CC(C)NCc1ccc(C[C@H]2C(=O)N[C@@H]([C@@H](C)O)C(=O)N[C@@H](Cc3ccc(O)cc3)C(=O)N[C@@H]([C@@H](C)O)C(=O)N[C@@H](CO)C(=O)N[C@H](C(=O)O)CSSC[C@H](NC(N)=O)C(=O)N[C@@H](CCCCN)C(=O)N[C@@H](Cc3ccccc3)C(=O)N[C@@H](Cc3ccccc3)C(=O)N[C@H](Cc3c[nH]c4ccccc34)C(=O)N2C)cc1 [Peptide No. 12] (KFF[dW][NMePhe(4-CH2NHiPr)]TYTSC-OH; linker N-10 via X1) is > 10000 nM
